# assay notes: log P by HPLC on reversed-phase columns (OECD Guideline 117), neutral range
# Format: physicochemical
# reported conditions: reversed-phase (C18) HPLC column, pH 7.8; HPLC-MS, neutral; read-out: log P[n]

- input smiles: "CN(C(=O)c1cnc(Cl)n1C)c1cccnc1"
  chromatographic logP: 0.88

----------
# Test system: Myzus persicae
# assay notes: Myzus persicae spray test (MYZUPE), Chinese cabbage leaf discs
# Format: in vivo
# reported conditions: after 5 days, application rate 500 g/ha
value type: efficacy (%)

- molecule: "Cc1cc(Oc2ncc(C(=O)N(C)c3cccnc3)n2C)cnc1Cl [Example II-57]"
  value type: "efficacy"
  meas value: 90
- molecule: "CN(C(=O)c1cnc(Oc2cncc(Br)c2)n1C)c1cccnc1 [Example II-67]"
  value type: "efficacy"
  meas value: 100
- molecule: "Cc1cccc(Oc2ncc(C(=O)N(C)c3cccnc3)n2C)c1 [Example II-79]"
  value type: "efficacy"
  meas value: 90
- molecule: "COc1cncc(Oc2ncc(C(=O)N(C)c3cccnc3)n2C)c1 [Example II-60]"
  value type: "efficacy"
  meas value: 90
- molecule: "Cc1cc(Cl)ncc1Oc1ncc(C(=O)N(C)c2cccnc2)n1C [Example II-59]"
  value type: "efficacy"
  meas value: 90
- molecule: "Cc1ccncc1Oc1ncc(C(=O)N(C)c2cccnc2)n1C [Example II-53]"
  value type: "efficacy"
  meas value: 90
- molecule: "CN(C(=O)c1cnc(Oc2ccc(Cl)c(Cl)c2)n1C)c1cccnc1 [Example II-28]"
  value type: "efficacy"
  meas value: 100
- molecule: "CN(C(=O)c1cnc(Oc2cncc(Cl)c2)n1C)c1cccnc1 [Example II-41]"
  value type: "efficacy"
  meas value: 100
- molecule: "CCOc1ncc(C(=O)N(CC)c2cccnc2)n1C [Example II-48]"
  value type: "efficacy"
  meas value: 90

----------
# Tested on: Aphis gossypii
# assay notes: Aphis gossypii spray test on cotton plants
# Assay type: in vivo
# reported conditions: after 6 days, application rate 20 ppm, cotton plants
Reported efficacy (kill) values for the following molecules.

- molecule: "CCN(C(=O)c1cnc(OC(C)C)n1C)c1cccnc1"
  measurement unit: "%"
  efficacy (kill): 100
- molecule: "CN(C(=O)c1cnc(Oc2ccc(F)cc2)n1C)c1cccnc1"
  measurement unit: "%"
  efficacy (kill): 100
- molecule: "CN(C(=O)c1cnc(Oc2cncc(Cl)c2)n1C)c1cccnc1"
  measurement unit: "%"
  efficacy (kill): 100
- molecule: "CN(C(=O)c1cnc(Oc2ccc(Oc3ccc(Cl)nc3)nc2)n1C)c1cccnc1"
  measurement unit: "%"
  efficacy (kill): 99
- molecule: "CN(C(=O)c1cnc(OCCCC#N)n1C)c1cccnc1"
  measurement unit: "%"
  efficacy (kill): 98
- molecule: "CN(C(=O)c1cnc(Oc2ccc(C#N)nc2)n1C)c1cccnc1"
  measurement unit: "%"
  efficacy (kill): 100
- molecule: "C=CCOc1ncc(C(=O)N(C)c2cccnc2)n1C"
  measurement unit: "%"
  efficacy (kill): 100
- molecule: "CN(C(=O)c1cnc(Oc2cncc(F)c2)n1C)c1cccnc1"
  measurement unit: "%"
  efficacy (kill): 100
- molecule: "CN(C(=O)c1cnc(Oc2cncc(C(F)(F)F)c2)n1C)c1cccnc1"
  measurement unit: "%"
  efficacy (kill): 100
- molecule: "CN(C(=O)c1cnc(OC2CCOC2)n1C)c1cccnc1 (stereo not shown)"
  measurement unit: "%"
  efficacy (kill): 100
- molecule: "CCN(C(=O)c1cnc(Oc2ccc(Cl)nc2)n1C)c1cccnc1"
  measurement unit: "%"
  efficacy (kill): 100
- molecule: "CCN(C(=O)c1cnc(OCCCC#N)n1C)c1cccnc1"
  measurement unit: "%"
  efficacy (kill): 100
- molecule: "CN(C(=O)c1cnc(Oc2ccc(F)nc2)n1C)c1cccnc1"
  measurement unit: "%"
  efficacy (kill): 100

----------
# System: Myzus persicae
# assay notes: Myzus persicae spray test (MYZUPE), Chinese cabbage leaf discs
# Type: in vivo
# reported conditions: after 5 days, application rate 500 g/ha

- molecule: "CCN(C(=O)c1cnc(Oc2ccc(Cl)nc2)n1C)c1cccnc1 [Example II-36]"
  efficacy (%): 90
- molecule: "CCN(C(=O)c1cnc(OCCCC#N)n1C)c1cccnc1 [Example II-47]"
  efficacy (%): 90
- molecule: "CN(C(=O)c1cnc(Oc2ccc(Oc3ccc(Oc4ccc(F)nc4)nc3)nc2)n1C)c1cccnc1 [Example II-50]"
  efficacy (%): 90
- molecule: "CN(C(=O)c1cnc(Oc2ccc(F)c(Cl)c2)n1C)c1cccnc1 [Example II-89]"
  efficacy (%): 100
- molecule: "CN(C(=O)c1cnc(Oc2cccc(C#N)c2)n1C)c1cccnc1 [Example II-72]"
  efficacy (%): 90
- molecule: "CN(C(=O)c1cnc(Oc2ccc(Br)nc2)n1C)c1cccnc1 [Example II-61]"
  efficacy (%): 100
- molecule: "COc1cc(Oc2ncc(C(=O)N(C)c3cccnc3)n2C)cnc1OC [Example II-64]"
  efficacy (%): 100
- molecule: "CCCCSc1cccc(Oc2ncc(C(=O)N(C)c3cccnc3)n2C)c1 [Example II-82]"
  efficacy (%): 100
- molecule: "CN(C(=O)c1cnc(Oc2cccc(C(F)(F)F)c2F)n1C)c1cccnc1 [Example II-78]"
  efficacy (%): 100
- molecule: "CN(C(=O)c1cnc(Oc2ccc(C#N)nc2)n1C)c1cccnc1 [Example II-58]"
  efficacy (%): 90
- molecule: "CN(C(=O)c1cnc(Oc2ccc(Oc3ccc(F)nc3)nc2)n1C)c1cccnc1 [Example II-49]"
  efficacy (%): 90
- molecule: "CN(C(=O)c1cnc(OCCCC#N)n1C)c1cccnc1 [Example II-38]"
  efficacy (%): 90
- molecule: "CN(C(=O)c1cnc(Oc2cncc(F)c2)n1C)c1cccnc1 [Example II-42]"
  efficacy (%): 90
- molecule: "CN(C(=O)c1cnc(Oc2cccc(S(C)(=O)=O)c2)n1C)c1cccnc1 [Example II-80]"
  efficacy (%): 100
- molecule: "Cc1cncc(Oc2ncc(C(=O)N(C)c3cccnc3)n2C)c1 [Example II-54]"
  efficacy (%): 90
- molecule: "CN(C(=O)c1cnc(Oc2cccnc2)n1C)c1cccnc1 [Example II-55]"
  efficacy (%): 100
- molecule: "CN(C(=O)c1cnc(Oc2ccc(F)c(C(F)(F)F)c2)n1C)c1cccnc1 [Example II-83]"
  efficacy (%): 90
- molecule: "COc1ncc(Cl)cc1Oc1ncc(C(=O)N(C)c2cccnc2)n1C [Example II-70]"
  efficacy (%): 90

----------
# Tested on: Myzus persicae
# assay notes: Myzus persicae spray test (MYZUPE), Chinese cabbage leaf discs
# Type: in vivo
# reported conditions: after 5 days, application rate 500 g/ha
Reported efficacy values for the following compounds.

- compound: "CCN(C(=O)c1cnc(OC(C)C)n1C)c1cccnc1"
  subject of test: "Myzus persicae"
  efficacy [%]: 100
- compound: "CN(C(=O)c1cnc(OC2CCOC2)n1C)c1cccnc1 (stereo not drawn)"
  subject of test: "Myzus persicae"
  efficacy [%]: 90
- compound: "CCc1cccc(Oc2ncc(C(=O)N(C)c3cccnc3)n2C)c1"
  subject of test: "Myzus persicae"
  efficacy [%]: 90
- compound: "CCOc1cccc(Oc2ncc(C(=O)N(C)c3cccnc3)n2C)c1"
  subject of test: "Myzus persicae"
  efficacy [%]: 90
- compound: "CCN(C(=O)c1cnc(Oc2ccc(Oc3ccc(Cl)nc3)nc2)n1C)c1cccnc1"
  subject of test: "Myzus persicae"
  efficacy [%]: 100
- compound: "CN(C(=O)c1cnc(Oc2cnccc2Cl)n1C)c1cccnc1"
  subject of test: "Myzus persicae"
  efficacy [%]: 100
- compound: "COc1ccc(Oc2ncc(C(=O)N(C)c3cccnc3)n2C)cn1"
  subject of test: "Myzus persicae"
  efficacy [%]: 90
- compound: "CN(C(=O)c1cnc(Oc2ccc(Cl)nc2)n1C)c1cccnc1"
  subject of test: "Myzus persicae"
  efficacy [%]: 90
- compound: "CCCc1cccc(Oc2ncc(C(=O)N(C)c3cccnc3)n2C)c1"
  subject of test: "Myzus persicae"
  efficacy [%]: 100

----------
# assay notes: log P by HPLC on reversed-phase columns (OECD Guideline 117), neutral range
# Assay type: physicochemical
# reported conditions: HPLC, neutral range pH 7.8
Reported LogP-neutral values for the following compounds.

- compound: "CCc1cccc(Oc2ncc(C(=O)N(C)c3cccnc3)n2C)c1 [Example II-75]"
  LogP-neutral: 2.35
- compound: "CN(C(=O)c1cnc(Oc2ccccn2)n1C)c1cccnc1 [Example II-16]"
  LogP-neutral: 1.13
- compound: "CN(C(=O)c1cnc(OC2CCOC2)n1C)c1cccnc1 (centres unmarked) [Example II-35]"
  LogP-neutral: 1
- compound: "CN(C(=O)c1cnc(OCCCC#N)n1C)c1cccnc1 [Example II-38]"
  LogP-neutral: 1.08
- compound: "CN(C(=O)c1cnc(Oc2cccc(C#N)c2)n1C)c1cccnc1 [Example II-72]"
  LogP-neutral: 1.52
- compound: "CN(C(=O)c1cnc(Oc2ccc(Cl)c(Cl)c2)n1C)c1cccnc1 [Example II-28]"
  LogP-neutral: 2.57
- compound: "CN(C(=O)c1cnc(Oc2ccc(F)c(Cl)c2)n1C)c1cccnc1 [Example II-89]"
  LogP-neutral: 2.17
- compound: "CN(C(=O)c1cnc(Oc2ccc(C#N)nc2)n1C)c1cccnc1 [Example II-58]"
  LogP-neutral: 1.1
- compound: "CN(C(=O)c1cnc(Oc2ccc(F)cc2)n1C)c1cccnc1 [Example II-19]"
  LogP-neutral: 1.76
- compound: "Cc1ccncc1Oc1ncc(C(=O)N(C)c2cccnc2)n1C [Example II-53]"
  LogP-neutral: 1.24
- compound: "CN(C(=O)c1cnc(Oc2ccc(F)nc2)n1C)c1cccnc1 [Example II-40]"
  LogP-neutral: 1.33
- compound: "CN(C(=O)c1cnc(Oc2ccc(Cl)nc2)n1C)c1cccnc1 [Example II-68]"
  LogP-neutral: 1.45
- compound: "Cc1cccc(Oc2ncc(C(=O)N(C)c3cccnc3)n2C)c1 [Example II-79]"
  LogP-neutral: 1.97
- compound: "CCN(C(=O)c1cnc(OCCCC#N)n1C)c1cccnc1 [Example II-47]"
  LogP-neutral: 1.33
